All values here come from patent US11389456B2.

We begin with a simple list: items and their reported solubility at 1 h.
- ASSAY_INFO: Solubility in phosphate buffered saline (PBS), pH 7.4
- Assay type: physicochemical
- CONDITION_INFO: phosphate buffer (PBS), aqueous buffer, kinetic from dmso stock; phosphate buffered saline pH 7.4, 1% DMSO, 1 hour shaking at room temperature
Please reply with the bare figure in µM and do not write the unit itself.

Example results:
{"CHEMICAL_SMILES": "Cc1ccc(-c2cccc(Oc3[nH]nnc3C(=O)O)c2)cc1", "solubility at 1 h / µM": 108}
{"CHEMICAL_SMILES": "O=C(O)c1nn[nH]c1Oc1cccc(C2CCC2)c1", "solubility at 1 h / µM": 112}
{"CHEMICAL_SMILES": "O=C(O)c1nn[nH]c1Oc1cccc(C2CCCC2)c1", "solubility at 1 h / µM": 79.8}
{"CHEMICAL_SMILES": "O=C(O)c1nn[nH]c1Oc1cccc(C2CCCCC2)c1", "solubility at 1 h / µM": 97.6}
{"CHEMICAL_SMILES": "O=C(O)c1nn[nH]c1Oc1cncc(-c2cccnc2)c1", "solubility at 1 h / µM": 108}
{"CHEMICAL_SMILES": "O=C(O)c1nn[nH]c1Oc1cccc(-c2ccncc2)c1", "solubility at 1 h / µM": 100}
{"CHEMICAL_SMILES": "C=Cc1ccc(Oc2[nH]nnc2C(=O)O)cc1", "solubility at 1 h / µM": 101}
{"CHEMICAL_SMILES": "COc1cc(-c2ccc(Oc3[nH]nnc3C(=O)O)cc2)ccc1F", "solubility at 1 h / µM": 110}

Next compound, please.
State its solubility at 1 h for this compound: O=C(O)c1[nH]nnc1Oc1ccc(-c2ccc(Cl)c(Cl)c2)cc1 96.3
